Item-by-item account of Kd
# experimental target: T1, Human PD-1 protein with histidine and avi tags (ACRO Biosystems, PD1-H82E4) (human, UniProt Q15116 25-167)
# T1 construct: Captured on streptavidin (SA) sensors in the BLI assay; not shown: histidine and avi tags
# T1 sequence (Q15116 25-167 limits assumed): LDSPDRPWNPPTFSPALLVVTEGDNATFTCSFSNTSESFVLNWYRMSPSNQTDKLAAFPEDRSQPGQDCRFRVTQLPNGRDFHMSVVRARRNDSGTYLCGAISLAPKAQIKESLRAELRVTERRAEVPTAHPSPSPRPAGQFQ
# experiment notes: BLI (Octet Red96e), PD-1 captured on SA sensor, 1:1 local fit
The reply should be a number in nM, with the unit left off.

{"columns": ["binder", "measurement units", "Kd"],
 "data": [
  ["PR005099 (VHH, Monovalent single-domain (VH) variant of PR002481 with Flag-6His tag) VHH: EVQLVETGGGLIQPGGSLRLSCAASGFNVSSHYMSWVRQAPGKGREWVSIIDSAGSTYYADSVKGRFTISRDNSKNRLYLQMNSLRAEDTAMYYCARATAVAEKNGYNYPFNYWGQGTLVTVSS", "nM", 4.32],
  ["PR005103 (VHH, Monovalent single-domain (VH) variant of PR002481 with Flag-6His tag) VHH: EVQLVETGGGLIQPGGSLRLSCAASGFNVSSHYMSWVRQAPGKGREWVSIIDRGGGTYYADSVKGRFTISRDNSKNRLYLQMNSLRAEDTAMYYCARATAVAEKNGYNYPFNYWGQGTLVTVSS", "nM", 79.6],
  ["PR005096 (VHH, Monovalent single-domain (VH) variant of PR002481 with Flag-6His tag) VHH: EVQLVETGGGLIQPGGSLRLSCAASGFNVSSHYMSWVRQAPGKGREWVSIIDGGGSTYYADSVKGRFTISRDNSKNRLYLQMNSLRAEDTAMYYCARATRVPEKGGYNYPFNYWGQGTLVTVSS", "nM", 10.4],
  ["PR005569 (antibody, human IgG1, V domains shown, no light chain; also called anti-PD1 PR002481R2M4_E2 HCAb hIgG1) VH: EVQLVETGGGLIQPGGSLRLSCAASGFNVSFYYMSWVRQAPGKGREWVSIIDKSGSTYYAASVKGRFTISRDNSKNRLYLQMNSLRAEDTAMYYCARATEVREKNGYNYPFNYWGQGTLVTVSS", "nM", 0.482],
  ["PR005148 (VHH, Monovalent single-domain (VH) variant of PR002481 with Flag-6His tag) VHH: EVQLVETGGGLIQPGGSLRLSCAASGFNVSSHYMSWVRQAPGKGREWVSIIDKAGSGYYAASVKGRFTISRDNSKNRLYLQMNSLRAEDTAMYYCARATEVREKNGYNYPFNYWGQGTLVTVSS", "nM", 1.21]
]}

[ask] Given the binder PR005141 (VHH, Monovalent single-domain (VH) variant of PR002481 with Flag-6His tag) VHH: EVQLVETGGGLIQPGGSLRLSCAASGFNVSYFYMSWVRQAPGKGREWVSIIDKGGSGYYAASVKGRFTISRDNSKNRLYLQMNSLRAEDTAMYYCARATEVREKNGYNYPFNYWGQGTLVTVSS , write its reported Kd.
[reply] 1.49

[ask] Given the binder PR005583 (antibody, human IgG1, V domains shown, no light chain; also called anti-PD1 PR002481Com_29 HCAb hIgG1) VH: EVQLVETGGGLIQPGGSLRLSCAASGFNVASFYMSWVRQAPGKGREWVSIIDKAGSTYYADSVKGRFTISRDNSKNRLYLQMNSLRAEDTAMYYCARATEVREKQGYNYPFNYWGQGTLVTVSS , write its reported Kd.
[reply] 1.69

Provenance of the data: patent US20240034792A1
